# tested-target: Androgen receptor (Rattus norvegicus); further: assay procedure not described here
# Sequence (P15207 whole entry S389L): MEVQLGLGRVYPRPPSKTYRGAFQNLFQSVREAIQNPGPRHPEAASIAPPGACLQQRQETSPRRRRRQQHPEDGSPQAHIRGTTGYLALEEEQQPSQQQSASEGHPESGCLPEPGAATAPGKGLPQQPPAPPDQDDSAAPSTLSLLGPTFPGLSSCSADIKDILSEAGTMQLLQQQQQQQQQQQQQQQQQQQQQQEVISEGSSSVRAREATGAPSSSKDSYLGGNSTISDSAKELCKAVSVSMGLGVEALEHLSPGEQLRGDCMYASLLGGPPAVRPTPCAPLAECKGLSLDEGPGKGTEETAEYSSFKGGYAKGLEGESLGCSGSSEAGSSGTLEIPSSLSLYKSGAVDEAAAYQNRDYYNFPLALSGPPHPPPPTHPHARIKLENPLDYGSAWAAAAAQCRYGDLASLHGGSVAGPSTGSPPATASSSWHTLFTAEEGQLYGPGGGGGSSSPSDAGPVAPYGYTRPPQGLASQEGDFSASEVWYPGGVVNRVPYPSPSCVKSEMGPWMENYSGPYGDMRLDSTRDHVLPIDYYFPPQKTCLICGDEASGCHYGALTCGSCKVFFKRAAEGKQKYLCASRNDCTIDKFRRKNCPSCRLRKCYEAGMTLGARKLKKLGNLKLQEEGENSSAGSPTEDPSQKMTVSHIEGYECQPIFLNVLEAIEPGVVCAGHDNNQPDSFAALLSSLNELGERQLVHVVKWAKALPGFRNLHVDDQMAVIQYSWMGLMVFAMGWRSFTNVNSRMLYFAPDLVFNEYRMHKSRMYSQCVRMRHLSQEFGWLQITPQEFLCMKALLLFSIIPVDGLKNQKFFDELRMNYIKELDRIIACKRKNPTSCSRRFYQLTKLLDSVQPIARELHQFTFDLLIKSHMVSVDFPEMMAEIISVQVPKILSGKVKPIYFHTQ
attribute-measured: AC50

C=CC[C@@H]1/C=C(\C)C[C@H](C)C[C@H](OC)[C@H]2O[C@@](O)(C(=O)C(=O)N3CCCC[C@H]3C(=O)O[C@H](/C(C)=C/[C@@H]3CC[C@@H](O)[C@H](OC)C3)[C@H](C)[C@@H](O)CC1=O)[C@H](C)C[C@@H]2OC [TACROLIMUS ANHYDROUS]: > 30 µM
O=C1CN=C(c2ccccn2)c2cc(Br)ccc2N1: > 10 µM
Cn1c(=O)cc(N2CCC[C@@H](N)C2)n(Cc2ccccc2C#N)c1=O: > 30 µM

Returns the measured AC50 for the input molecule. Input: Nc1cc(-c2ccncc2)c[nH]c1=O
> 30 µM
